Source: patent US7407939B2

targetOrTestSystem: PKB (Homo sapiens)
Construct: His; HA; made in house
procedureSummary: PKB in vitro kinase activity assay (soluble His-HA-PKB / SPA bead screening)
Format: biochemical
testContext: 1 μM compound concentration, Assay 2
Where no end group is shown, it is not given here. Side-chain parts run from the residue outwards. [ ]: non-standard residue; d: D form. The star is where a group is joined. X1 = 5‑aminoethylsulfonamide isoquinoline, O=S(=O)(NCCN*)c1cccc2cnccc12; hLeu = CC(C)CC[C@H](N)C(=O)O; Nle = CCCC[C@H](N)C(=O)O; Orn = NCCC[C@H](N)C(=O)O; Dab = NCC[C@H](N)C(=O)O; Nva = CCC[C@H](N)C(=O)O; Abu = CC[C@H](N)C(=O)O; βAla = NCCC(=O)O
Short version: PKB-kinase (spa) Assay 2, % inhibition of kinase activity at least 30% is Y, less is N.

Worked examples, 3 substances total:
60020-26: Arg-Pro-Arg-Nle-Glu(5-aminoethylsulfonamide isoquinoline)-Dab-Hol (RPR[Nle]E(X1)[Dab][hLeu])	N
60020-77: Arg-Pro-Arg-Orn-Glu(bAla-5-aminoethylsulfonamide isoquinoline)-Ala-Phe (RPR[Orn]E([βAla-X1])AF)	N
60020-17: Arg-Pro-Arg-Abu-Glu(5-aminoethylsulfonamide isoquinoline)-Dab-Phe (RPR[Abu]E(X1)[Dab]F)	Y

In: Could you tell me if the measured PKB-kinase (spa) Assay 2, % inhibition of kinase activity of 60020-32: Arg-Pro-Arg-Nle-Glu(5-aminoethylsulfonamide isoquinoline)-Nva-Hol (RPR[Nle]E(X1)[Nva][hLeu]) reaches 30% or more?
Out: Y

In: Could you tell me if the measured PKB-kinase (spa) Assay 2, % inhibition of kinase activity of 60020-63: Arg-Pro-Arg-Nle-Glu(Gly-5-aminoethylsulfonamide isoquinoline)-Nva-Phe (RPR[Nle]E([Gly-X1])[Nva]F) reaches 30% or more?
Out: N

In: Could you tell me if the measured PKB-kinase (spa) Assay 2, % inhibition of kinase activity of 60020-29: Arg-Pro-Arg-Nle-Glu(5-aminoethylsulfonamide isoquinoline)-Ala-Phe (RPR[Nle]E(X1)AF) reaches 30% or more?
Out: Y

In: Could you tell me if the measured PKB-kinase (spa) Assay 2, % inhibition of kinase activity of 60020-89: Arg-Pro-Arg-Nle-Glu(bAla-5-aminoethylsulfonamide isoquinoline)-Dab-Phe (RPR[Nle]E([βAla-X1])[Dab]F) reaches 30% or more?
Out: Y

###

targetOrTestSystem: PKB (Homo sapiens, UniProt P31749)
Construct: His; HA; made in house
Sequence (P31749 whole entry, species assumed): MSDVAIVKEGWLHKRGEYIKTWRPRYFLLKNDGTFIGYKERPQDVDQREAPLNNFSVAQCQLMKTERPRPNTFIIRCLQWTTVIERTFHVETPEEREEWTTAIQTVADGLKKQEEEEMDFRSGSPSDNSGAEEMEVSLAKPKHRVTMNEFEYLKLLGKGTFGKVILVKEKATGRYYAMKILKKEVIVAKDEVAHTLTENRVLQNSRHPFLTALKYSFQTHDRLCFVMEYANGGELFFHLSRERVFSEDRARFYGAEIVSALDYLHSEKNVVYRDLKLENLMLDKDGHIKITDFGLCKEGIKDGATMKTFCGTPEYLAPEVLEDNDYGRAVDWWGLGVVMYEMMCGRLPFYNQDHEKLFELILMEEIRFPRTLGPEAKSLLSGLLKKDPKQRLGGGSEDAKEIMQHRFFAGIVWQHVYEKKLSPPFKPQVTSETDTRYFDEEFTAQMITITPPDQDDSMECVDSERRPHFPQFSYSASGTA
procedureSummary: PKB in vitro kinase activity assay (soluble His-HA-PKB / SPA bead screening)
Format: biochemical
testContext: 1 μM compound concentration, Assay 2
Where no end group is shown, it is not given here. Side-chain parts run from the residue outwards. [ ]: non-standard residue; d: D form. The star is where a group is joined. X1 = 5‑aminoethylsulfonamide isoquinoline, O=S(=O)(NCCN*)c1cccc2cnccc12; hLeu = CC(C)CC[C@H](N)C(=O)O; Orn = NCCC[C@H](N)C(=O)O; Dab = NCC[C@H](N)C(=O)O; Dap = NC[C@H](N)C(=O)O
# PKB-kinase (spa) Assay 2, % inhibition of kinase activity annotations
Report the value in % with no unit label.

Check out these entries, answers already filled in.
60020-35: Arg-Pro-Arg-Dap-Glu(Gly-5-aminoethylsulfonamide isoquinoline)-Orn-Phe (RPR[Dap]E([Gly-X1])[Orn]F; not fully specified)	56
60020-34: Arg-Pro-Arg-Dap-Glu(Gly-5-aminoethylsulfonamide isoquinoline)-Dab-Hol (RPR[Dap]E([Gly-X1])[Dab][hLeu])	65

Shifting focus to the substance that follows.
In: State the recorded PKB-kinase (spa) Assay 2, % inhibition of kinase activity for this entry: 60020-38: Arg-Pro-Arg-Dap-Glu(Gly-5-aminoethylsulfonamide isoquinoline)-Ala-Hol (RPR[Dap]E([Gly-X1])A[hLeu])
Out: 49

###

# IC50 annotations
targetOrTestSystem: PKB (Homo sapiens)
Construct: His; HA; made in house
procedureSummary: PKB in vitro kinase activity assay (soluble His-HA-PKB / SPA bead screening)
Format: biochemical
testContext: Table 3, linear 7-mer peptides; read-out: Activity PKB
Where a SMILES comes first, the peptide text is derived from it. [ ]: non-standard residue; d: D form. hLeu = CC(C)CC[C@H](N)C(=O)O; Orn = NCCC[C@H](N)C(=O)O; Abu = CC[C@H](N)C(=O)O; Dap = NC[C@H](N)C(=O)O
Report the value in µM with no unit label.

In: State the recorded IC50 for this entry: CC(C)CC[C@H](NC(=O)[C@H](C)NC(=O)[C@H](CO)NC(=O)[C@@H](NC(=O)[C@H](CCCNC(=N)N)NC(=O)[C@@H]1CCCN1C(=O)[C@@H](N)CCCNC(=N)N)[C@@H](C)O)C(N)=O [TY 60002-50, Arg-Pro-Arg-Thr-Ser-Ala-Hol] (H-RPRTSA[hLeu]-NH2; N-terminus and C-terminus assumed)
Out: 5

In: State the recorded IC50 for this entry: CC[C@H](NC(=O)[C@H](CO)NC(=O)[C@@H](NC(=O)[C@H](CCCNC(=N)N)NC(=O)[C@@H]1CCCN1C(=O)[C@@H](N)CCCNC(=N)N)[C@@H](C)O)C(=O)N[C@@H](CCC(C)C)C(N)=O [TY 60002-73, Arg-Pro-Arg-Thr-Ser-Abu-Hol] (H-RPRTS[Abu][hLeu]-NH2; N-terminus and C-terminus assumed)
Out: 5

In: State the recorded IC50 for this entry: N=C(N)NCCC[C@H](NC(=O)[C@@H]1CCCN1C(=O)[C@@H](N)CCCNC(=N)N)C(=O)N[C@@H](CCCN)C(=O)N[C@@H](CO)C(=O)N[C@@H](CO)C(=O)N[C@@H](Cc1ccccc1)C(N)=O [AR 60003-52, Arg-Pro-Arg-Orn-Ser-Ser-Phe] (H-RPR[Orn]SSF-NH2; N-terminus and C-terminus assumed)
Out: 2.5

In: State the recorded IC50 for this entry: CC[C@H](NC(=O)[C@H](CO)NC(=O)[C@@H](NC(=O)[C@H](CCCNC(=N)N)NC(=O)[C@@H]1CCCN1C(=O)[C@@H](N)CCCNC(=N)N)C(C)C)C(=O)N[C@@H](Cc1ccccc1)C(N)=O [TY 60002-61, Arg-Pro-Arg-Val-Ser-Abu-Phe] (H-RPRVS[Abu]F-NH2; N-terminus and C-terminus assumed)
Out: 5

In: State the recorded IC50 for this entry: CC(C)CC[C@H](NC(=O)[C@H](CN)NC(=O)[C@H](CO)NC(=O)[C@@H](NC(=O)[C@H](CCCNC(=N)N)NC(=O)[C@@H]1CCCN1C(=O)[C@@H](N)CCCNC(=N)N)[C@@H](C)O)C(N)=O [TY 60002-96, Arg-Pro-Arg-Thr-Ser-Dap-Hol] (H-RPRTS[Dap][hLeu]-NH2; N-terminus and C-terminus assumed)
Out: 5

###

targetOrTestSystem: PKB (Homo sapiens, UniProt P31749)
Construct: His; HA; made in house
procedureSummary: PKB in vitro kinase activity assay (soluble His-HA-PKB / SPA bead screening)
Assay type: biochemical
testContext: 1 μM compound concentration, Assay 1
Where no end group is shown, it is not given here. Side-chain parts run from the residue outwards. [ ]: non-standard residue; d: D form. The star is where a group is joined. X1 = 5‑aminoethylsulfonamide isoquinoline, O=S(=O)(NCCN*)c1cccc2cnccc12; hLeu = CC(C)CC[C@H](N)C(=O)O; Orn = NCCC[C@H](N)C(=O)O; Abu = CC[C@H](N)C(=O)O; Dap = NC[C@H](N)C(=O)O
# PKB-kinase (spa) Assay 1, % inhibition of kinase activity annotations
Report the value in % with no unit label.

Check out these entries, answers already filled in.
60020-35: Arg-Pro-Arg-Dap-Glu(Gly-5-aminoethylsulfonamide isoquinoline)-Orn-Phe (RPR[Dap]E([Gly-X1])[Orn]F; not fully specified)	43
60020-19: Arg-Pro-Arg-Abu-Glu(5-aminoethylsulfonamide isoquinoline)-Orn-Phe (RPR[Abu]E(X1)[Orn]F)	32

Shifting focus to the substance that follows.
In: State the recorded PKB-kinase (spa) Assay 1, % inhibition of kinase activity for this entry: 60020-38: Arg-Pro-Arg-Dap-Glu(Gly-5-aminoethylsulfonamide isoquinoline)-Ala-Hol (RPR[Dap]E([Gly-X1])A[hLeu])
Out: 49

###

targetOrTestSystem: PKA (Bos taurus)
Construct: purchased Promega
procedureSummary: In vitro PKA kinase activity assay (kemptide / SPA beads);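 note: Cell-free assay of purified PKA catalytic subunit phosphorylating the 7-mer kemptide substrate, run in MOPS buffer with magnesium acetate and BSA, with blank wells lacking enzyme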
Format: biochemical
testContext: 1 μM compound concentration, Assay 1
Where no end group is shown, it is not given here. Side-chain parts run from the residue outwards. [ ]: non-standard residue; d: D form. The star is where a group is joined. X1 = 5‑aminoethylsulfonamide isoquinoline, O=S(=O)(NCCN*)c1cccc2cnccc12; hLeu = CC(C)CC[C@H](N)C(=O)O; Nle = CCCC[C@H](N)C(=O)O; Orn = NCCC[C@H](N)C(=O)O; Dab = NCC[C@H](N)C(=O)O; Abu = CC[C@H](N)C(=O)O; Dap = NC[C@H](N)C(=O)O
experimentalEndpoint: PKA-kinase Assay 1, % inhibition of kinase activity
Lab note: write values as number then unit, every time.

Check out these entries, answers already filled in.
60020-60: Arg-Pro-Arg-Nle-Glu(Gly-5-aminoethylsulfonamide isoquinoline)-Orn-Hol (RPR[Nle]E([Gly-X1])[Orn][hLeu])	87%
60020-50: Arg-Pro-Arg-Abu-Glu(Gly-5-aminoethylsulfonamide isoquinoline)-Dab-Hol (RPR[Abu]E([Gly-X1])[Dab][hLeu])	97%
60020-43: Arg-Pro-Arg-Orn-Glu(Gly-5-aminoethylsulfonamide isoquinoline)-Orn-Phe (RPR[Orn]E([Gly-X1])[Orn]F)	96%
60020-38: Arg-Pro-Arg-Dap-Glu(Gly-5-aminoethylsulfonamide isoquinoline)-Ala-Hol (RPR[Dap]E([Gly-X1])A[hLeu])	98%

Shifting focus to the substance that follows.
In: State the recorded PKA-kinase Assay 1, % inhibition of kinase activity for this entry: 60020-44: Arg-Pro-Arg-Orn-Glu(Gly-5-aminoethylsulfonamide isoquinoline)-Orn-Hol (RPR[Orn]E([Gly-X1])[Orn][hLeu])
Out: 95%
